target: Sialyltransferase ST3Gal-I (Rattus norvegicus) (UniProt Q6H8N0); assay: Inhibition of rat alpha-2,3-O-ST3GALI assessed as reduction in sialylated-product formation at 500 uM using p-nitrophenyl T-antigen and CMP-NeuSAc incubated for 15 mins by reverse-phase HPLC analysis relative to control
Sequence (Q6H8N0 as listed by the source): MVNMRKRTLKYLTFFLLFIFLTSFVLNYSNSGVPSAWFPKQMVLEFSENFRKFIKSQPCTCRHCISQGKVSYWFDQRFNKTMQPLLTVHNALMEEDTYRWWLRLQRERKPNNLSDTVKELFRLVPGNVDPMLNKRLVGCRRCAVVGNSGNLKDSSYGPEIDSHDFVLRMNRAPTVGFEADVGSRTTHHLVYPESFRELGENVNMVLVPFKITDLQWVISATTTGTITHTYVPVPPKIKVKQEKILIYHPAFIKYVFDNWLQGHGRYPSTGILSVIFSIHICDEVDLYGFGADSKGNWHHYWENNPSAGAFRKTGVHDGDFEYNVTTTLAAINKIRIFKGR
Measured inhibition accompanies every entry in the list below.
Answer format: numeric, % implied, no suffix.

These solved cases illustrate the format of a correct answer.
C[C@H](CCC(=O)OCCOCCN=[N+]=[N-])[C@H]1CC[C@H]2[C@@H]3CC[C@@H]4C[C@H](OC(=O)[C@H](CC(=O)O)Nc5ccc([N+](=O)[O-])c6nonc56)CC[C@]4(C)[C@H]3CC[C@]12C	0
C[C@H](CCC(=O)OCCN=[N+]=[N-])[C@H]1CC[C@H]2[C@@H]3CC[C@@H]4C[C@H](OC(=O)[C@H](CC(=O)O)NC(=O)c5ccc([N+](=O)[O-])cc5)CC[C@]4(C)[C@H]3CC[C@]12C	0
C[C@@H]1O[C@@H](O[C@H]2[C@H](O[C@H]3[C@H](O[C@H]4CC[C@@]5(C)[C@@H](CC[C@]6(C)[C@@H]5CC=C5[C@@H]7CC(C)(C)C[C@@H](O)[C@]7(C)CC[C@]56C)[C@@]4(C)CO)O[C@H](C(=O)O)[C@@H](O)[C@@H]3O)O[C@H](CO)[C@H](O)[C@@H]2O)[C@H](O)[C@H](O)[C@H]1O	59

Shifting focus to the molecule that follows.
Can you share its inhibition? I mean this molecule: `COc1ccc2c(CC(=O)N[C@@H](CC(=O)O)C(=O)O[C@@H]3CC[C@@]4(C)[C@H](CC[C@@H]5[C@@H]4CC[C@]4(C)[C@@H]([C@H](C)CCC(=O)OCCOCCOCCOCCOCCN=[N+]=[N-])CC[C@@H]54)C3)cc(=O)oc2c1`
0
